molecular target: Cbl-B (Homo sapiens); construct: MSD-Based Assay for Degradation of Cbl-B in THP-1 Cells; endogenous in cells; host or cells: THP-1 (title) / Jurkat (protocol text); assay: MSD-based assay for degradation of Cbl-B in THP-1 cells; format: cell-based; settings: Cbl-B degradation, Jurkat cells seeded (heading: THP-1 cells), 24 hours incubation, MSD readout; read-out: Dmax
Sequence (Q13191 whole entry): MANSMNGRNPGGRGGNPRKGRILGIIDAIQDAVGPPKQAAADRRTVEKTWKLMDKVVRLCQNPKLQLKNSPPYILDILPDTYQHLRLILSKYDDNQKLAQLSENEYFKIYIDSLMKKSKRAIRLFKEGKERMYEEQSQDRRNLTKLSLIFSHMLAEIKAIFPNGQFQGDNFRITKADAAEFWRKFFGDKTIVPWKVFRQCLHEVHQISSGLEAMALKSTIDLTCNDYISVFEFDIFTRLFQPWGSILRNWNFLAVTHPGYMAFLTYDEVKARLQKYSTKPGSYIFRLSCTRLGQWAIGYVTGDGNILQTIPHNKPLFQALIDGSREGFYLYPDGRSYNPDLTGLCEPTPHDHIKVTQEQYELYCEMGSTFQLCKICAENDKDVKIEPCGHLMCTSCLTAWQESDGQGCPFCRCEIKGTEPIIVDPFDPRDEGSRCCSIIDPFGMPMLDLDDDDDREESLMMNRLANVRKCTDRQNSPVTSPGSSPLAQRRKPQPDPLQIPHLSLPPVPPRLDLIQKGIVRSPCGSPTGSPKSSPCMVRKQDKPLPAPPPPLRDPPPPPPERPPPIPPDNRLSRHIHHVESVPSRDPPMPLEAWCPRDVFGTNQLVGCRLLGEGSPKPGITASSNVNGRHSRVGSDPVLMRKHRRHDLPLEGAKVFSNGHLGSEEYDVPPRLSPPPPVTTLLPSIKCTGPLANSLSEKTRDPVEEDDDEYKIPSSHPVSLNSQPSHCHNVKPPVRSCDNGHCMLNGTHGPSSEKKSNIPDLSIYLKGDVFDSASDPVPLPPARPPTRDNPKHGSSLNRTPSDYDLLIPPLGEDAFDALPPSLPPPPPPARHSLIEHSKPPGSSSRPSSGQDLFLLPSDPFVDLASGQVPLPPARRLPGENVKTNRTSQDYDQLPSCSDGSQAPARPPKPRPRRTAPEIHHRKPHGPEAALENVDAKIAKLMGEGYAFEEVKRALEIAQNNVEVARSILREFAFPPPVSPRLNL
measured.quantity: Dmax

| compound | reading |
| --- | --- |
| Cn1cnnc1CC1(c2cccc(-n3cc4c(C(F)(F)F)cc(CN5CCC[C@@H](OC6CCN(C(=O)c7ccc(N8CCN(c9ccc%10c(c9)CN([C@@H]9CCC(=O)NC9=O)C%10=O)CC8)cc7)CC6)C5)cn4c3=O)c2)COC1 (single isomer, unassigned) | > 70% |
| Cn1cnnc1[C@@H](c1cccc(-n2cc3c(C(F)(F)F)cc(CN4CCC(OCc5ccc(CN6CCN(c7ccc8c(c7)CN([C@H]7CCC(=O)NC7=O)C8=O)CC6)cc5)CC4)cn3c2=O)c1)C1CCC1 (single isomer, unassigned) | > 70% |
| Cn1cnnc1[C@@H](c1cccc(-n2cc3c(C(F)(F)F)cc(CN4CCC(OCc5ccc(C(=O)N6CCN(c7ccc8c(c7)CN([C@@H]7CCC(=O)NC7=O)C8=O)CC6)cc5)CC4)cn3c2=O)c1)C1CCC1 (single isomer, unassigned) | < 30% |
| Cn1cnnc1[C@@H](c1cccc(-n2cc3c(C(F)(F)F)cc(CN4CCC(OCCOCc5ccc(CN6CCN(c7cc8c(cc7F)C(=O)N(C7CCC(=O)NC7=O)C8=O)CC6)cc5)CC4)cn3c2=O)c1)C1CCC1 (stereo partly shown) | < 30% |
| Cn1cnnc1[C@@H](c1cccc(-n2cc3c(C(F)(F)F)cc(CN4CCC[C@@H](OCCc5ccc(CN6CCN(c7ccc8c(c7)CN([C@@H]7CCC(=O)NC7=O)C8=O)CC6)cc5)C4)cn3c2=O)c1)C1CCC1 (single isomer, unassigned) | 30 to 50% |

[in] Please look up its Dmax: CN(CCC1CCN(Cc2cc(C(F)(F)F)c3cn(-c4cccc([C@H](c5nncn5C)C5CCC5)c4)c(=O)n3c2)CC1)C(=O)c1ccc(N2CCN(c3ccc4c(c3)CN([C@H]3CCC(=O)NC3=O)C4=O)CC2)cc1 (single isomer, unassigned)
[out] > 70%

[in] Please look up its Dmax: Cn1cnnc1[C@@H](c1cccc(-n2cc3c(C(F)(F)F)cc(CC4CCC[C@@H](OCCOCc5ccc(COCCNc6cccc7c6C(=O)N(C6CCC(=O)NC6=O)C7=O)cc5)C4)cn3c2=O)c1)C1CCC1 (stereo partly shown)
[out] 50 to 70%

[in] Please look up its Dmax: Cn1cnnc1CC1(c2cccc(-n3cc4c(C(F)(F)F)cc(CN5CCC[C@@H](OCCc6ccc(CN7CCN(c8ccc9c(c8)CN([C@@H]8CCC(=O)NC8=O)C9=O)CC7)cc6)C5)cn4c3=O)c2)COC1 (single isomer, unassigned)
[out] 50 to 70%

[in] Please look up its Dmax: Cn1cnnc1[C@@H](c1cccc(-n2cc3c(C(F)(F)F)cc(CN4CCC[C@H](OCCN5CCC(CN6CCN(c7ccc8c(c7)CN([C@@H]7CCC(=O)NC7=O)C8=O)CC6)CC5)C4)cn3c2=O)c1)C1CCC1
[out] 30 to 50%

[in] Please look up its Dmax: CN(C(=O)c1ccc(CN2CCN(c3ccc4c(c3)CN([C@H]3CCC(=O)NC3=O)C4=O)CC2)cc1)C1CCN(Cc2cc(C(F)(F)F)c3cn(-c4cccc(C5(Cc6nncn6C)COC5)c4)c(=O)n3c2)CC1 (single isomer, unassigned)
[out] > 70%
